# credit: the kinase profiling compilation of Christmann-Franck et al. (2016)

Measurement target: TESK1 (human) (UniProt Q15569)
Sequence (Q15569 whole entry, looked up): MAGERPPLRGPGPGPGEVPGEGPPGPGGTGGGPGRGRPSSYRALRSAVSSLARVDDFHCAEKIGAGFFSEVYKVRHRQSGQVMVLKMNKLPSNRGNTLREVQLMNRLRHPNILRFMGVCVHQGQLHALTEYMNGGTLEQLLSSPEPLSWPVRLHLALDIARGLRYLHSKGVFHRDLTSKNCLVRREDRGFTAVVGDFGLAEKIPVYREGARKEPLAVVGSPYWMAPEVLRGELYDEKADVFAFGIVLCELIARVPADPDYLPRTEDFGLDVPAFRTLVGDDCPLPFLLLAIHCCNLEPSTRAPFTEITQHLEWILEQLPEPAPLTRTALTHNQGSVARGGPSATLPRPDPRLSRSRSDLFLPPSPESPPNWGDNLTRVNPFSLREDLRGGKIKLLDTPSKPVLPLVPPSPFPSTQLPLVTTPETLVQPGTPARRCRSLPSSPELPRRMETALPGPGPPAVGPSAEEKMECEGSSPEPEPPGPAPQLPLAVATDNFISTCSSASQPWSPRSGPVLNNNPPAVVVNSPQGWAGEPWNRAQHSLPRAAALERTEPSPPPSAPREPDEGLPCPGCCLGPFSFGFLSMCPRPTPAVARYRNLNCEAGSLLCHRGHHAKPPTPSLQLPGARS
Experimental protocol: KINOMEscan competition binding
Conditions: compound 10.0 µM
Value type: kinase still bound, per cent of control
Your reply should be a number followed by the unit it is expressed in.

Worked cases, answers included:
>>> df
                                test_smiles  result
0  O=C(NOC[C@H](O)CO)c1ccc(F)c(F)c1Nc1ccc(I)cc1F     98%
1  COc1cc(N2CCN(C)CC2)ccc1Nc1nc(N)c(C(=O)c2c(Cl)cccc2Cl)s1    100%
2  C=CC(=O)Nc1cccc(Oc2nc(Nc3ccc(N4CCN(C)CC4)cc3OC)ncc2Cl)c1    100%
3  COc1cc(C(=O)NC2CCN(C)CC2)ccc1Nc1ncc2c(n1)N(C1CCCC1)CCC(=O)N2C(C)C    100%
4  Cc1ccc(C(=O)Nc2cccc(C(F)(F)F)c2)cc1Nc1cncc(C(N)=O)c1    100%
5  Nc1ccc(-c2ccc3ncc4ccc(=O)n(-c5cccc(C(F)(F)F)c5)c4c3c2)cn1     94%

Then this molecule:
Simply: CCCS(=O)(=O)Nc1ccc(F)c(C(=O)c2c[nH]c3ncc(-c4ccc(Cl)cc4)cc23)c1F , TESK1 (human) (UniProt Q15569), kinase still bound, per cent of control = 29%

----------
Each entry below carries its recorded kinase still bound, per cent of control.
Measurement target: DCLK2 (human) (UniProt Q8N568)
Sequence (Q8N568 whole entry, looked up): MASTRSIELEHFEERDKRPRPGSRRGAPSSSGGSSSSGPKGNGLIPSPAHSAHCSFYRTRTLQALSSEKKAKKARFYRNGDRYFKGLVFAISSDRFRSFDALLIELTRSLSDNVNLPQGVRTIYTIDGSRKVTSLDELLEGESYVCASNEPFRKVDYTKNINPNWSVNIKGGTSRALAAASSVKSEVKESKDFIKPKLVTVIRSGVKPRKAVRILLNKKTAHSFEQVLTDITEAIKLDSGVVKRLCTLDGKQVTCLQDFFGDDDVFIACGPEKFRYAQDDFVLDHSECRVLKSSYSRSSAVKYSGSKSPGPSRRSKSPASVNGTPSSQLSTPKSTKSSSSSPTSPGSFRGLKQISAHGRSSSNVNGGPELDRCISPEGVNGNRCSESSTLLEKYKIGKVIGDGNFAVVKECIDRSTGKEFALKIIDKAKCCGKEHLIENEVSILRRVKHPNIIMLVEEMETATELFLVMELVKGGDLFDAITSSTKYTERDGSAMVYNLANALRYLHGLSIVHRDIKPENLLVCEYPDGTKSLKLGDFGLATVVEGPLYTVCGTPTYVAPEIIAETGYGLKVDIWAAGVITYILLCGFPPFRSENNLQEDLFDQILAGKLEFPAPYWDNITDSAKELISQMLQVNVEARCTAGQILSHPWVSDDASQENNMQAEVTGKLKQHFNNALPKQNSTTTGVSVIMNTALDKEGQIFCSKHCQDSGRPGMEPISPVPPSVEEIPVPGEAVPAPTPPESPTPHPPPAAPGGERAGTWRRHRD
Experimental protocol: KINOMEscan competition binding
Conditions: compound 10.0 µM
Report the value in % with no unit label.

>>> print(df.to_string())
                                   compound  number
0   OCCCNc1cc(-c2ccnc(Nc3cccc(Cl)c3)n2)ccn1     100
1  COc1cc(C(=O)NC2CCN(C)CC2)ccc1Nc1ncc2c(n1)N(C1CCCC1)C(C)CC(=O)N2C (stereo not given)      19
2  C=CC(=O)Nc1cccc(Oc2nc(Nc3ccc(N4CCN(C)CC4)cc3OC)ncc2Cl)c1    0.45

Simply: CCN1CCN(Cc2ccc(Nc3ncc4c(n3)N(C)c3ccccc3C(=O)N4C)cc2C(F)(F)F)CC1 , DCLK2 (human) (UniProt Q8N568), kinase still bound, per cent of control = 1.3

Simply: COc1cc(C(=O)NC2CCN(C)CC2)ccc1Nc1ncc2c(n1)N(C1CCCC1)CCC(=O)N2C(C)C , DCLK2 (human) (UniProt Q8N568), kinase still bound, per cent of control = 100

Simply: N#Cc1c(NC(=O)c2cccc3ccccc23)sc2c1CCCC2 , DCLK2 (human) (UniProt Q8N568), kinase still bound, per cent of control = 100

Simply: C=CC(=O)Nc1cc(NC(=O)c2ccc(C)c(NC(=O)c3ccno3)c2)cc(C(F)(F)F)c1 , DCLK2 (human) (UniProt Q8N568), kinase still bound, per cent of control = 100

Simply: O=C1Nc2ccc(I)cc2/C1=C/c1cc(Br)c(O)c(Br)c1 , DCLK2 (human) (UniProt Q8N568), kinase still bound, per cent of control = 94

----------
Each entry below carries its recorded kinase still bound, per cent of control.
Measurement target: MET (human)
Experimental protocol: KINOMEscan competition binding
Conditions: compound 10.0 µM
Report the value in % with no unit label.

                                test_smiles  number
0   OCCCNc1cc(-c2ccnc(Nc3cccc(Cl)c3)n2)ccn1     100
1  COc1cc(N2CCN(C)CC2)ccc1Nc1nc(N)c(C(=O)c2c(Cl)cccc2Cl)s1     100
2  C[C@@H](Oc1cc(-n2cnc3ccc(CN4CCN(C)CC4)cc32)sc1C(N)=O)c1ccccc1C(F)(F)F      76

Then this compound:
# compound Cc1ccc(NC(=O)c2cccc(C(C)(C)C#N)c2)cc1Nc1ccc2ncn(C)c(=O)c2c1 ; its kinase still bound, per cent of control = 89
